# MEASURED_ON: Glucagon-like peptide 1 receptor (Homo sapiens)
# Sequence (P43220 whole entry): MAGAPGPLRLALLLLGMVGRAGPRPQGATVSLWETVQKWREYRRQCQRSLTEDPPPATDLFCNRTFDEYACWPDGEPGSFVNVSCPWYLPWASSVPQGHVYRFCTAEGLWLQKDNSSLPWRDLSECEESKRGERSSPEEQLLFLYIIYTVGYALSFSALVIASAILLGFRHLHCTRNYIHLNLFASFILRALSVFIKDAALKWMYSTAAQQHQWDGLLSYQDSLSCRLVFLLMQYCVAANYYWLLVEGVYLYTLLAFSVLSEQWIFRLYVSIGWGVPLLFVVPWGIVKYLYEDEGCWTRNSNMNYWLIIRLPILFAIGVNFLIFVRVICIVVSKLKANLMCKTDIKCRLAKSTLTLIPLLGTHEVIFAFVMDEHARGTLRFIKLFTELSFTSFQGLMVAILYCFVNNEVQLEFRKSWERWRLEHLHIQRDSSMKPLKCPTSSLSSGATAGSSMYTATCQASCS
# EXPERIMENT_SUMMARY: Agonist activity at N-terminal hemagglutinin-tagged human GLP-1R expressed in CHO cells co-transfected with pcDNA3.0 assessed as increase in intracellular cAMP accumulation incubated for 30 mins by microplate reader analysis
# Format: functional, cell-based
VALUE_KIND: EC50 (nM)

[P] O=C(O)c1cc2c(nc(CN3CCC(Oc4cccc(Cc5ccc6cn[nH]c6c5F)n4)CC3)n2C[C@@H]2CCO2)s1
[Q] O=C(O)c1cc2c(nc(CN3CCC(Oc4ccnc(Cc5ccc(Cl)c6ccoc56)n4)CC3)n2C[C@@H]2CCO2)s1
[R] N#Cc1ccc(OCc2cccc(OC3CCN(Cc4nc5sc(C(=O)O)cc5n4C[C@@H]4CCO4)CC3)n2)c(F)c1
[S] O=C(O)c1cc2c(nc(CN3CCC(Oc4nccc(Cc5ccc(Cl)cc5)n4)CC3)n2C[C@@H]2CCO2)s1
input: Re-order the entries listed above so their EC50 values fall from first to last. Please reply with the labels ordered as requested. Many thanks.
output: S, P, Q, R
